- Assayed system: Kv1.5 (Homo sapiens)
- Construct: expressed in transfected cells; host or cells: HEK or LTK- cells
- Sequence (P22460 whole entry): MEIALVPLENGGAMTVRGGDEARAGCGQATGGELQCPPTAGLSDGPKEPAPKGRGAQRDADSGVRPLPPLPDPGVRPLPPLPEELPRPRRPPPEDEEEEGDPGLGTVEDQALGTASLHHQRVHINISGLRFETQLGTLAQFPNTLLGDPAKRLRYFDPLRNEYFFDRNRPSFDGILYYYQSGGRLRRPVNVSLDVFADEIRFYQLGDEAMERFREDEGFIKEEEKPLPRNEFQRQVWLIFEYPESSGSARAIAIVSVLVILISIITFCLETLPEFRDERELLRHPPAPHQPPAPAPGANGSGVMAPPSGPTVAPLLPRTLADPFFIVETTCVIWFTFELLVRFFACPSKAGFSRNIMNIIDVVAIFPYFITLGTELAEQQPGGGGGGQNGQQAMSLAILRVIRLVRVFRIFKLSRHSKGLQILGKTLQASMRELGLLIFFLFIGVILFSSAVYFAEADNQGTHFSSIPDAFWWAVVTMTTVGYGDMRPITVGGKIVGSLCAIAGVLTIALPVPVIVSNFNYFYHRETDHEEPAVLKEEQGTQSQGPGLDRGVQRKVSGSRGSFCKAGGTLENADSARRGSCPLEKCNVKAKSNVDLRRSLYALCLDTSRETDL
- Test method notes: Kv1.5 Patch Clamp EP
- Type: cell-based
- Study conditions: 1.0 μM, single point; whole cell patch clamp, Kv1.5 stably over expressed in HEK or LTK- cells
- Method: The external solution is standard Tyrodes solution. […] Inhibition was measured at the end of the 1 second pulses and expressed relative to controls. Initial Kv1.5 inhibition is estimated by single point determinations done at 1 μM.
Observed property: inhibition at 1 µM (%)
Hi! Could you send only the number? It should be in %, unit omitted.

Some solved entries appear below for comparison.
Compound: COc1ccc(CCN2C(=O)N(NS(C)(=O)=O)CC2c2ccc3c(c2)OCCO3)cc1 (stereo not shown)
Observed property: inhibition at 1 µM
Test value: 89

Compound: COc1ccc(CCN2C(=O)N(N)CC2c2ccc(C3CC3)cc2)cc1 (stereo not shown)
Observed property: inhibition at 1 µM
Test value: 53

Compound: COc1ccc(CCN2C(=O)N(NS(C)(=O)=O)CC2c2ccc(C)c(C)c2)cc1 (stereo not shown)
Observed property: inhibition at 1 µM
Test value: 92

Let us examine a further case.
Input: // query inhibition at 1 µM value for entry COc1ccc(CCN2C(=O)N(NS(=O)(=O)Cc3ccccc3)CC2c2ccc(OC)cc2)cc1 (stereo not shown)
Output: 95
